Measured Emax values are reported for all entries that follow.
biological target: 5-hydroxytryptamine receptor 2C (Homo sapiens) (UniProt P28335); assay: Positive allosteric modulation of human 5HT2CR expressed in CHO cells assessed as increase in 5-HT induced intracellular calcium release at 1 nM preincubated for 15 mins followed by 5-HT addition and measured at 1 secs interval for 360 secs by calcium 4 dye based FLIPR assay relative to 5-HT; format: functional, cell-based
Sequence (P28335 whole entry): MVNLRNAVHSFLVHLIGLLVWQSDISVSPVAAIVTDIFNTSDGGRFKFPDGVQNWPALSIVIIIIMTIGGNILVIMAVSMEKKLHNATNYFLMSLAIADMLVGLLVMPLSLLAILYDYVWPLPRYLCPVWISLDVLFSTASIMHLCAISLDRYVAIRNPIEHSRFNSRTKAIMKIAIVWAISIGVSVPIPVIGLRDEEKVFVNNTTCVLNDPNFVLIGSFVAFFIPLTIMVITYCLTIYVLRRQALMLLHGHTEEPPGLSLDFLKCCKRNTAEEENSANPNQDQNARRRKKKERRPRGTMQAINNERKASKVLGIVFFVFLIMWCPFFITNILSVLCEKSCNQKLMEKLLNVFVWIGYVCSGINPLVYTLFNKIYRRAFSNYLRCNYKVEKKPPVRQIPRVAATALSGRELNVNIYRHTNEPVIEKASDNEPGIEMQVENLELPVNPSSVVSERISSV
Experimental endpoint: Emax (%)

INSERT INTO measurements (compound, output_unit, observed_measurement) VALUES
  ('O=C(NC[C@H](O)CO)[C@@H]1C[C@H](CCC2CCCCC2)CCN1', '%', 110),
  ('O=C(NC(CO)CO)[C@@H]1C[C@H](c2ccccc2)CCN1 (racemic)', '%', 119),
  ('Cc1ccc(CC[C@H]2CCN[C@@H](C(=O)N[C@H](CO)[C@H](O)c3ccccc3)C2)cc1', '%', 98.9),
  ('O=C(NC[C@H](O)CO)[C@@H]1C[C@H](C2CCCCC2)CCN1 (mixture of isomers)', '%', 118),
  ('O=C(N[C@H](CO)[C@H](O)c1ccccc1)[C@@H]1C[C@H](CCc2ccccc2)CCN1', '%', 110),
  ('O=C(NC[C@H](O)CO)[C@@H]1C[C@H](CCc2ccccc2)CCN1', '%', 108),
  ('O=C(NC(CO)CO)[C@@H]1C[C@H](CCC2CCCCC2)CCN1 (relative stereo)', '%', 106),
  ('O=C(N[C@H](CO)[C@H](O)c1ccccc1)[C@@H]1C[C@H](c2ccccc2)CCN1', '%', 103),
  ('O=C(NCCCN1CCOCC1)[C@@H]1C[C@H](CCc2ccccc2)CCN1 (racemic)', '%', 118),
  ('O=C(N[C@H](CO)[C@H](O)c1ccccc1)[C@H]1C[C@@H](CCc2ccccc2)CCN1', '%', 109),
  ('O=C(NCCN1CCOCC1)[C@@H]1C[C@H](c2ccccc2)CCN1 (racemic)', '%', 114),
  ('O=C(NCCN1CCOCC1)[C@@H]1C[C@H](C2CCCCC2)CCN1 (racemic)', '%', 121),
  ('CC(C)(C)c1ccc(CC[C@H]2CCN[C@@H](C(=O)N[C@H](CO)[C@H](O)c3ccccc3)C2)cc1', '%', 107),
  ('CC(C)(C)c1ccc(CC[C@@H]2CCN[C@H](C(=O)N[C@H](CO)[C@H](O)c3ccccc3)C2)cc1', '%', 115),
  ('O=C(N[C@H](CO)[C@H](O)c1ccccc1)[C@H]1C[C@@H](c2ccccc2)CCN1', '%', 118),
  ('O=C(NCCN1CCOCC1)[C@@H]1C[C@H](CCC2CCCCC2)CCN1 (racemic)', '%', 110),
  ('O=C(NC(CO)CO)[C@@H]1C[C@H](CCc2ccccc2)CCN1 (relative stereo)', '%', 101),
  ('O=C(NCCCN1CCOCC1)[C@@H]1C[C@H](CCC2CCCCC2)CCN1 (racemic)', '%', 118),
  ('Cc1ccc(CC[C@@H]2CCN[C@H](C(=O)N[C@H](CO)[C@H](O)c3ccccc3)C2)cc1', '%', 99.3),
  ('O=C(NCCN1CCOCC1)[C@@H]1C[C@H](CCc2ccccc2)CCN1 (racemic)', '%', 94.2),
  ('O=C(NC(CO)CO)[C@@H]1C[C@H](C2CCCCC2)CCN1 (racemic)', '%', 119);

====

assay: Clearance in Sprague-Dawley rat at 20 mg/kg, po; type: ADME, organism-based; conditions: in vivo
Experimental endpoint: CL/F (mL/min/kg)

INSERT INTO measurements (compound, experimental_endpoint, output_unit, observed_measurement) VALUES
  ('O=C(NC[C@H](O)CO)[C@@H]1C[C@H](c2ccccc2)CCN1 (mixture of isomers)', 'CL/F', 'mL/min/kg', 182);

====

biological target: 5-HT2A receptor (Homo sapiens); experiment: Positive allosteric modulation of human 5HT2AR expressed in CHO cells assessed as increase in 5-HT induced intracellular calcium release at 1 nM preincubated for 15 mins followed by 5-HT addition and measured at 1 secs interval for 360 secs by calcium 4 dye based FLIPR assay relative to 5-HT; type: cell-based; conditions: CHO cells expressing human 5HT2AR
Measured Emax at 0.1 h, 0.001 µM values are reported for all entries that follow.
Experimental endpoint: Emax at 0.1 h, 0.001 µM

INSERT INTO results (compound, observed_measurement) VALUES
  ('O=C(NCCCN1CCOCC1)[C@@H]1C[C@H](CCC2CCCCC2)CCN1 (racemic)', '97.2%'),
  ('O=C(N[C@H](CO)[C@H](O)c1ccccc1)[C@@H]1C[C@H](CCc2ccccc2)CCN1', '104%'),
  ('O=C(N[C@H](CO)[C@H](O)c1ccccc1)[C@H]1C[C@@H](c2ccccc2)CCN1', '103%'),
  ('O=C(NC(CO)CO)[C@@H]1C[C@H](c2ccccc2)CCN1 (racemic)', '99.3%'),
  ('O=C(NCCCN1CCOCC1)[C@@H]1C[C@H](CCc2ccccc2)CCN1 (racemic)', '97.9%'),
  ('O=C(NC[C@H](O)CO)[C@@H]1C[C@H](C2CCCCC2)CCN1 (mixture of isomers)', '97.8%'),
  ('O=C(NC[C@H](O)CO)[C@@H]1C[C@H](c2ccccc2)CCN1 (mixture of isomers)', '103%');

====

target: CYP2C19 (Homo sapiens); test: Inhibition of CYP2C19 (unknown origin) at 10 uM relative to control; type: ADME
Sequence (P33261 whole entry): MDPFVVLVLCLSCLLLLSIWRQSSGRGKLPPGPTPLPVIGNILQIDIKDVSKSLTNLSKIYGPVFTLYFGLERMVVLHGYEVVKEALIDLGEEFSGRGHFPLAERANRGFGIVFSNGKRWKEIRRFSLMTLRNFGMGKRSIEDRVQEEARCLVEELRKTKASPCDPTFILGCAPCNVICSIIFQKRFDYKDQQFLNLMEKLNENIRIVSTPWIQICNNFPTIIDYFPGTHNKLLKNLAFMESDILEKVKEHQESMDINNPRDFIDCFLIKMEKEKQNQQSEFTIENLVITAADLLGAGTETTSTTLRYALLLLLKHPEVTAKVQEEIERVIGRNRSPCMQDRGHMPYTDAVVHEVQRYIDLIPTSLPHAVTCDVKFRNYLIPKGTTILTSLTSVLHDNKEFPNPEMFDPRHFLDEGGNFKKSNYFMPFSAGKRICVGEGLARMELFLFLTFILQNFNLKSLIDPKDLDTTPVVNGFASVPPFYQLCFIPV
Experimental endpoint: inhibition at 10 µM (%)

INSERT INTO results (compound, output_unit, observed_measurement) VALUES
  ('O=C(NC[C@H](O)CO)[C@@H]1C[C@H](c2ccccc2)CCN1 (mixture of isomers)', '%', 0);

====

target: 5-HT2A receptor (Homo sapiens, UniProt P28223); assay: Displacement of [3H]-ketanserin from 5HT2A (unknown origin) at 10 uM incubated for 90 mins under dark condition by scintillation counting analysis relative to control; conditions: probe [3H]-ketanserin
Sequence (P28223 whole entry): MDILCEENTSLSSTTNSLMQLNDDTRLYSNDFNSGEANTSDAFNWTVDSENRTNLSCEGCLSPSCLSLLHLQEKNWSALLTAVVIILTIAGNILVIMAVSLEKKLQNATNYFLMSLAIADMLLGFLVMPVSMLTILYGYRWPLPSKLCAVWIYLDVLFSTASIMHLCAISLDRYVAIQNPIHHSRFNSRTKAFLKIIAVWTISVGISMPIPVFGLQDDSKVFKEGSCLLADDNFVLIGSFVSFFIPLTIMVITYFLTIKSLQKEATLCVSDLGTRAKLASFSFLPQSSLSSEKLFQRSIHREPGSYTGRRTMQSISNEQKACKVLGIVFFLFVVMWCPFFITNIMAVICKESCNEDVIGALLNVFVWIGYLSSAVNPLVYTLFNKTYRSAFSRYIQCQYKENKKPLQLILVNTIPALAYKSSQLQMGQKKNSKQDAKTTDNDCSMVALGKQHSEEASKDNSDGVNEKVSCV
Experimental endpoint: inhibition at 1.5 h, 10 µM (%)

INSERT INTO assay_data (compound, target_entity, output_unit, observed_measurement) VALUES
  ('O=C(NC[C@H](O)CO)[C@@H]1C[C@H](c2ccccc2)CCN1 (mixture of isomers)', '5-HT2A receptor (Homo sapiens, UniProt P28223)', '%', -4.3);

====

molecular target: CYP2C9 (Homo sapiens); experiment: Inhibition of CYP2C9 (unknown origin) at 10 uM relative to control; assay type: ADME
Sequence (P11712 whole entry): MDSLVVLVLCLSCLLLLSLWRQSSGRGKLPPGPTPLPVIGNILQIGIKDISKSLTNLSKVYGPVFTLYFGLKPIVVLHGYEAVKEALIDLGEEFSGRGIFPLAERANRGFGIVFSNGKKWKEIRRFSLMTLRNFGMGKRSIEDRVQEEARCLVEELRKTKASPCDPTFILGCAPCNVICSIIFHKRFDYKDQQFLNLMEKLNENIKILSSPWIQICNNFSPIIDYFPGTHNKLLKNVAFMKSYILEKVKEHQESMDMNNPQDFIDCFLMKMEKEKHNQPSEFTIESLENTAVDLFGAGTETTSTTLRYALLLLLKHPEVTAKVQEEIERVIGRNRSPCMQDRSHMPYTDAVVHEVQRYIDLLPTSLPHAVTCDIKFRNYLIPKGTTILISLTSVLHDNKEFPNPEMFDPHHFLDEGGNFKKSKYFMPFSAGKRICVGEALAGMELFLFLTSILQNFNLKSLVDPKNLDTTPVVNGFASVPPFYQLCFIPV
Experimental endpoint: inhibition at 10 µM (%)

INSERT INTO measurements (compound, observed_measurement) VALUES
  ('O=C(NC[C@H](O)CO)[C@@H]1C[C@H](c2ccccc2)CCN1 (mixture of isomers)', 0);

====

target: CYP2D6 (Homo sapiens, UniProt P10635); assay: Inhibition of CYP2D6 (unknown origin) at 10 uM relative to control; type: ADME
Sequence (P10635 whole entry): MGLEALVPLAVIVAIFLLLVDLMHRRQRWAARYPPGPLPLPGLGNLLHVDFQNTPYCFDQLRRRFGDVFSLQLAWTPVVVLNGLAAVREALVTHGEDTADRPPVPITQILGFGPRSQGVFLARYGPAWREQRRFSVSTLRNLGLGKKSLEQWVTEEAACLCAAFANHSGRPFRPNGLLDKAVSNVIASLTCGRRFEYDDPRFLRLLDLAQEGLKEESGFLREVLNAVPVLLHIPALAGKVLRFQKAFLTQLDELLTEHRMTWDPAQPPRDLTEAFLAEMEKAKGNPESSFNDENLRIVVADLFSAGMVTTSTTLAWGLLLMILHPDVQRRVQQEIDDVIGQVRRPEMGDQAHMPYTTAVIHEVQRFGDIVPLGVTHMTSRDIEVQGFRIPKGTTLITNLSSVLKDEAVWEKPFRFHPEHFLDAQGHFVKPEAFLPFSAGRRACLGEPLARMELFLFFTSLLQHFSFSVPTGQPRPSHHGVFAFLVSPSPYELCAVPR
Experimental endpoint: inhibition at 10 µM (%)

INSERT INTO assay_data (molecule, target_entity, output_unit, observed_measurement) VALUES
  ('O=C(NC[C@H](O)CO)[C@@H]1C[C@H](c2ccccc2)CCN1 (mixture of isomers)', 'CYP2D6 (Homo sapiens, UniProt P10635)', '%', 1.9);

====

target: CYP3A4 (Homo sapiens); experiment: Inhibition of CYP3A4 (unknown origin) at 10 uM relative to control; format: ADME
Sequence (P08684 whole entry): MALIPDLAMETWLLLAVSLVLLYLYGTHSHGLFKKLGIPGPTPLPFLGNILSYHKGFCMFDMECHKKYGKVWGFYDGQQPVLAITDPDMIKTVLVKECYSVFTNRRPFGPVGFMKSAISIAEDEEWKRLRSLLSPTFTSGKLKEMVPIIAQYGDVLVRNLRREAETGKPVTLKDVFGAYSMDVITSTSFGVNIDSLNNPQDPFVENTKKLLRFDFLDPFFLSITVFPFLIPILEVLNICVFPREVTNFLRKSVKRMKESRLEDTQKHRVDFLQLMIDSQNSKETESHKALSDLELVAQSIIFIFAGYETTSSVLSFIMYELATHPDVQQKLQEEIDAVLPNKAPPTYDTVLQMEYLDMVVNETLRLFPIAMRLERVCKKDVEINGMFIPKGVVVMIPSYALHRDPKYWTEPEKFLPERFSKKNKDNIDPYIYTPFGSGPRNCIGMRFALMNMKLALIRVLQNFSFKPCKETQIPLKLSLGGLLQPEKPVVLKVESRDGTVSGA
Experimental endpoint: inhibition at 10 µM (%)

INSERT INTO measurements (compound, observed_measurement) VALUES
  ('O=C(NC[C@H](O)CO)[C@@H]1C[C@H](c2ccccc2)CCN1 (mixture of isomers)', 0);

Hey, just so you know, these numbers are from ChEMBL document CHEMBL4622923.
